Test Details: Cytotoxicity in MDCK cells assessed as reduction of cell viability incubated for 2 days by CytoTox-Glo cytotoxicity assay
Type: cell-based, Canis lupus familiaris
Measurement Parameters: dog
Quantity Kind: CC50 at 48 h

Field: example entries. Status: answers known.
Record Smiles	CC50 at 48 h
O=C(Cc1ccc(SC(F)(F)F)cc1)NCCCCN1CCCC2=C[C@H]3C[C@H](CN4CCCC[C@H]34)[C@@H]21	45.1 µM
O=C(Cc1ccc(S(=O)(=O)C(F)(F)F)cc1)NCCCCN1CCCC2=C[C@H]3C[C@H](CN4CCCC[C@H]34)[C@@H]21	> 80 µM
C1=C2CCCN[C@H]2[C@@H]2C[C@H]1[C@H]1CCCCN1C2	> 80 µM

Quick check: CC50 at 48 h of O=C(Cc1ccc(C(F)(F)F)cc1)NCCCCN1CCCC2=C[C@H]3C[C@H](CN4CCCC[C@H]34)[C@@H]21 ? > 80 µM

Consider next the compound O=C(Cc1ccc(OC(F)(F)F)cc1)NCCCCN1CCCC2=C[C@H]3C[C@H](CN4CCCC[C@H]34)[C@@H]21 in the same way. > 80 µM

Consider next the compound O=C(NCCCCN1CCCC2=C[C@H]3C[C@H](CN4CCCC[C@H]34)[C@@H]21)c1ccc(C(=O)c2ccccc2)cc1 in the same way. 31.6 µM

Consider next the compound O=C(NCCCCN1CCCC2=C[C@H]3C[C@H](CN4CCCC[C@H]34)[C@@H]21)c1ccc(S(=O)(=O)C(F)(F)F)cc1 in the same way. > 80 µM

Consider next the compound O=C(NCCCCN1CCCC2=C[C@H]3C[C@H](CN4CCCC[C@H]34)[C@@H]21)C(=O)c1ccc(C(F)(F)F)cc1 in the same way. > 80 µM

Every entry's value here was drawn from ChEMBL document CHEMBL4130569.
